Source of measurements: patent US20160362416A1

test: IV and PO single dose pharmacokinetic studies in SD rats; format: in vivo; conditions: Sprague-Dawley, rat, plasma, male SD rats, IV infusion 1 mg/kg, oral gavage 2 mg/kg, read-out: Rat % F
assayMetric: bioavailability (%)
Give the value, in units of %, as a plain number.

Lookup: For the compound COC(=O)N[C@H](C(=O)N1[C@@H](C)CC[C@H]1c1ncc(-c2ccc3c(c2)COc2cc4c(ccc5nc([C@@H]6CC[C@H](C)N6C(=O)[C@@H](NC(=O)OC)C6CCOCC6)[nH]c54)cc2-3)[nH]1)C(C)C [Comp 5, reference compound] , give its measured bioavailability value.
Found: 22

Lookup: Kindly indicate its recorded bioavailability. Item: CC[C@H]1CC[C@@H](c2nc3ccc4cc5c(cc4c3[nH]2)OCc2cc(-c3cnc([C@@H]4CC[C@H](C)N4C(=O)[C@@H](NC(=O)OC)C(C)C)[nH]3)ccc2-5)N1C(=O)[C@@H](NC(=O)OC)C1CCOCC1 [Comp 3, reference compound]
Found: 46.6

Lookup: Read the entry COC(=O)N[C@H](C(=O)N1[C@@H](C)CC[C@H]1c1nc2ccc3cc4c(cc3c2[nH]1)OCc1cc(-c2cnc([C@@H]3CC[C@H](C)N3C(=O)[C@@H](NC(=O)OC)C3CCOCC3)[nH]2)ccc1-4)C(C)C [Comp 7, reference compound] and write its reported bioavailability.
Found: 10.2

Lookup: Specify bioavailability for CC[C@H](C)[C@H](NC(=O)OC)C(=O)N1[C@@H](C)CC[C@H]1c1nc2ccc3cc4c(cc3c2[nH]1)OCc1cc(-c2cnc([C@@H]3CC[C@H](C)N3C(=O)[C@@H](NC(=O)OC)C3CCOCC3)[nH]2)ccc1-4 [Comp 12, reference compound] and stop.
Found: 5.64

----------
tested on: NS5A chimeric genotype 1b Con1 replicon with genotype 4a ED43 strain NS5A gene; test: HCV genotype 4a NS5A chimeric replicon assay; type: cell-based; details: Hepatitis C virus, 72 h, read-out: 4a (s) (nM)
Hi there, I'd appreciate the recorded EC50 for every entry that follows.
# number only, unit nM dropped from output

Lookup: Dear colleague, please send me the reported EC50 for COC(=O)N[C@H](C(=O)N1[C@@H](C)CC[C@H]1c1ncc(-c2ccc3c(c2)COc2cc4c(ccc5nc([C@@H]6CC[C@H](C)N6C(=O)[C@H](NC(=O)OC)C6C[C@@H](C)O[C@H](C)C6)[nH]c54)cc2-3)[nH]1)C(C)C (some centres unmarked) when you can.
Found: 4.19

Lookup: Tell me its EC50 given CC[C@H]1CC[C@@H](c2nc3ccc4cc5c(cc4c3[nH]2)OCc2cc(-c3cnc([C@@H]4CC[C@H](C)N4C(=O)[C@@H](NC(=O)OC)C(C)C)[nH]3)ccc2-5)N1C(=O)[C@@H](NC(=O)OC)C1CCOCC1 [Comp 3, reference compound] as the entry.
Found: 0.014

Lookup: # return recorded EC50 for input COC(=O)N[C@H](C(=O)N1[C@@H](C)CC[C@H]1c1ncc(-c2ccc3c(c2)COc2cc4c(ccc5nc([C@@H]6CC[C@H](C)N6C(=O)[C@@H](NC(=O)OC)[C@H]6C[C@@H](C)O[C@@H](C)C6)[nH]c54)cc2-3)[nH]1)C(C)C
Found: 0.01

Lookup: Report EC50, nothing else, for this molecule: COC(=O)N[C@H](C(=O)N1[C@@H](C)CC[C@H]1c1nc2ccc3cc4c(cc3c2[nH]1)OCc1cc(-c2cnc([C@@H]3CC[C@H](C)N3C(=O)[C@@H](NC(=O)OC)C3(C)CCOCC3)[nH]2)ccc1-4)C(C)C
Found: 0.028

Lookup: Name the recorded EC50 of the molecule listed here: COC(=O)N[C@H](C(=O)N1[C@@H](C)CC[C@H]1c1ncc(-c2ccc3c(c2)COc2cc4c(ccc5nc([C@@H]6CC[C@H](C)N6C(=O)[C@@H](NC(=O)OC)[C@H]6CCCOC6)[nH]c54)cc2-3)[nH]1)C(C)C
Found: 0.012

Lookup: Output measured EC50 for this item: COC(=O)N[C@H](C(=O)N1[C@@H](C)CC[C@H]1c1nc2ccc3cc4c(cc3c2[nH]1)OCc1cc(-c2cnc([C@@H]3CC[C@H](C)N3C(=O)[C@@H](NC(=O)OC)C3C[C@@H](C)O[C@H](C)C3)[nH]2)ccc1-4)C(C)C (some centres unmarked)
Found: 0.024

Lookup: Name the recorded EC50 of the molecule listed here: COC(=O)N[C@H](C(=O)N1[C@@H](c2ncc(-c3ccc4c(c3)COc3cc5c(ccc6nc([C@@H]7C[C@H](C)[C@H](C)N7C(=O)[C@@H](NC(=O)OC)C7C[C@@H](C)O[C@H](C)C7)[nH]c65)cc3-4)[nH]2)C[C@@H](C)[C@H]1C)C1C[C@@H](C)O[C@H](C)C1 (some centres unmarked)
Found: 2.54

Lookup: Give reported EC50 value for CC[C@H](C)[C@H](NC(=O)OC)C(=O)N1[C@@H](C)CC[C@H]1c1nc2ccc3cc4c(cc3c2[nH]1)OCc1cc(-c2cnc([C@@H]3CC[C@H](C)N3C(=O)[C@@H](NC(=O)OC)C3C[C@@H](C)O[C@H](C)C3)[nH]2)ccc1-4 (some centres unmarked)
Found: 0.006

----------
System: NS5A chimeric genotype 2a JFH-1 replicon with genotype 2a J6 strain NS5A gene (M31)
Assay: HCV genotype 2a J6 NS5A chimeric replicon assay, transient (t)
Type: cell-based
Details: Hepatitis C virus, 72 h, read-out: 2a J6 (t) (nM)
Experimental: Evaluation of cell-based anti-HCV activity: Antiviral potency (EC50) was determined using a Renilla luciferase (RLuc)-based HCV replicon reporter assay. […] 72 hours later, cells were lysed and Renilla luciferase activity quantified as recommended by the manufacturer (Promega-Madison, Wis.). […]
Give EC50 for every item shown.
The response must be a number in nM with no trailing unit.

Lookup: Read off the recorded EC50 for COC(=O)N[C@H](C(=O)N1[C@@H](C)CC[C@H]1c1ncc(-c2ccc3c(c2)COc2cc4c(ccc5nc([C@@H]6CC[C@H](C)N6C(=O)[C@H](NC(=O)OC)[C@H]6C[C@@H](C)O[C@@H](C)C6)[nH]c54)cc2-3)[nH]1)C(C)C
Found: 4.44

Lookup: Specify measured EC50 for CC[C@H]1C[C@@H](c2nc3ccc4cc5c(cc4c3[nH]2)OCc2cc(-c3cnc([C@@H]4CC[C@H](C)N4C(=O)[C@@H](NC(=O)OC)C(C)C)[nH]3)ccc2-5)N(C(=O)[C@@H](NC(=O)OC)C2C[C@@H](C)O[C@H](C)C2)C1 (some centres unmarked) .
Found: 0.003

----------
test system: Q30E in genotype 1a NS5A replicon; test: Resistance mutant replicon assay, genotype 1a NS5A Q30E; format: cell-based, HCV; settings: Hepatitis C virus, read-out: 1a Q30E (nM)
For each entry below, report its EC50 value.
Dear colleague, please return just the value in nM, with no unit written.

Lookup: Given COC(=O)N[C@H](C(=O)N1[C@@H](C)CC[C@H]1c1ncc(-c2ccc3c(c2)COc2cc4c(ccc5nc([C@@H]6CC[C@H](C)N6C(=O)[C@@H](NC(=O)OC)C6CC(C)O[C@H](C)C6)[nH]c54)cc2-3)[nH]1)C(C)C (stereo in doubt) , respond with its EC50.
Found: 0.074

Lookup: Provide EC50 value for the following compound: COC(=O)N[C@H](C(=O)N1[C@@H](C)CC[C@H]1c1ncc(-c2ccc3c(c2)COc2cc4c(ccc5nc([C@@H]6CC[C@H](C)N6C(=O)[C@@H](NC(=O)OC)C6CCOCC6)[nH]c54)cc2-3)[nH]1)C1CCOCC1 [Comp 6, reference compound]
Found: 0.101

Lookup: Name the recorded EC50 of the compound listed here: COC(=O)N[C@H](C(=O)N1[C@@H](C)CC[C@H]1c1ncc(-c2ccc3c(c2)COc2cc4c(ccc5nc([C@@H]6CC[C@H](C)N6C(=O)[C@@H](NC(=O)OC)[C@H]6C[C@@H](C)O[C@@H](C)C6)[nH]c54)cc2-3)[nH]1)C(C)C
Found: 1.21

Lookup: Let me know recorded EC50 for COC(=O)N[C@H](C(=O)N1[C@@H](C)CC[C@H]1c1ncc(-c2ccc3c(c2)COc2cc4c(ccc5nc([C@@H]6C[C@@H]7CCC[C@@H]7N6C(=O)[C@@H](NC(=O)OC)C6CCOCC6)[nH]c54)cc2-3)[nH]1)C(C)C [Comp 10, reference compound] , thanks.
Found: 0.716

----------
experiment: IV and PO single dose pharmacokinetic studies in SD rats; type: in vivo; settings: Sprague-Dawley, rat, plasma, male SD rats, IV infusion 1 mg/kg, oral gavage 2 mg/kg, read-out: Rat % F
assayMetric: bioavailability
# do not omit the unit; it follows the number

Lookup: Determine its reported bioavailability: CC[C@H]1CC[C@@H](c2nc3ccc4cc5c(cc4c3[nH]2)OCc2cc(-c3cnc([C@@H]4CC[C@H](C)N4C(=O)[C@@H](NC(=O)OC)C(C)C)[nH]3)ccc2-5)N1C(=O)[C@@H](NC(=O)OC)[C@H]1CCCOC1
Found: 27.8%

Lookup: Consider the molecule COC[C@H]1C[C@@H](c2ncc(-c3ccc4c(c3)COc3cc5c(ccc6nc([C@@H]7CC[C@H](C)N7C(=O)[C@@H](NC(=O)OC)C7C[C@@H](C)O[C@H](C)C7)[nH]c65)cc3-4)[nH]2)N(C(=O)[C@@H](NC(=O)OC)C2C[C@@H](C)O[C@H](C)C2)C1 (some centres unmarked) and give its recorded bioavailability.
Found: 2.7%

Lookup: Give bioavailability for the following molecule: COC(=O)N[C@H](C(=O)N1[C@@H](C)CC[C@H]1c1ncc(-c2ccc3c(c2)COc2cc4c(ccc5nc([C@@H]6CC[C@H](C)N6C(=O)[C@@H](NC(=O)OC)C6C[C@@H](C)O[C@H](C)C6)[nH]c54)cc2-3)[nH]1)C1C[C@@H](C)O[C@H](C)C1 (some centres unmarked)
Found: 16.4%

Lookup: Tell me bioavailability reported for COC(=O)N[C@H](C(=O)N1[C@@H](C)CC[C@H]1c1nc2ccc3cc4c(cc3c2[nH]1)OCc1cc(-c2cnc([C@@H]3CC[C@H](C)N3C(=O)[C@@H](NC(=O)OC)C3C[C@@H](C)O[C@H](C)C3)[nH]2)ccc1-4)C(C)C (some centres unmarked)
Found: 17.4%

Lookup: Please give the documented bioavailability of COC(=O)N[C@H](C(=O)N1[C@@H](C)CC[C@H]1c1ncc(-c2ccc3c(c2)COc2cc4c(ccc5nc([C@@H]6CCCN6C(=O)[C@@H](NC(=O)OC)C6CCOCC6)[nH]c54)cc2-3)[nH]1)C(C)C [Comp 14, reference compound]
Found: 6.88%

Lookup: Retrieve bioavailability measured for CC[C@H](C)[C@H](NC(=O)OC)C(=O)N1[C@@H](C)CC[C@H]1c1ncc(-c2ccc3c(c2)COc2cc4c(ccc5nc([C@@H]6CC[C@H](C)N6C(=O)[C@@H](NC(=O)OC)C6C[C@@H](C)O[C@H](C)C6)[nH]c54)cc2-3)[nH]1 (some centres unmarked) and print it.
Found: 28.1%

Lookup: Give me measured bioavailability, please, for this molecule: CC[C@H]1C[C@@H](c2nc3ccc4cc5c(cc4c3[nH]2)OCc2cc(-c3cnc([C@@H]4CC[C@H](C)N4C(=O)[C@@H](NC(=O)OC)C(C)C)[nH]3)ccc2-5)N(C(=O)[C@@H](NC(=O)OC)C2CCOCC2)C1 [Comp 1, reference compound]
Found: 9.9%

Lookup: Give a short answer stating reported bioavailability for CC[C@H](C)[C@H](NC(=O)OC)C(=O)N1[C@H](c2ncc(-c3ccc4c(c3)COc3cc5c(ccc6nc([C@@H]7CC[C@H](C)N7C(=O)[C@@H](NC(=O)OC)C7CCOCC7)[nH]c65)cc3-4)[nH]2)C[C@@H]2CCC[C@@H]21 [Comp 9, reference compound] .
Found: 0.571%
